Source of measurements: PubChem BioAssay AID1745844

- System: rodent lifetime carcinogenesis bioassay, tumor incidence TD50
- EXPERIMENT DESCRIPTION: carcinogenic potency in animals, long-term in vivo studies, CPDB compilation (AID 1745844)
- MEASUREMENT CONTEXT: rat; strain Holtzman albino (Sprague-Dawley derived); females; in feed; site: small intestine; lesion: adenocarcinoma; dosed 44 weeks; study length 60 weeks
PROPERTY NAME: TD50

Challenge: # return recorded TD50 for entry `O=CNNc1nc(-c2ccc([N+](=O)[O-])o2)cs1`
Response given: 78.5 mg/kg/day

----------
- Test system: rodent lifetime carcinogenesis bioassay, tumor incidence TD50
- EXPERIMENT DESCRIPTION: carcinogenic potency in animals, long-term in vivo studies, CPDB compilation (AID 1745844)
- MEASUREMENT CONTEXT: rat; strain Fischer 344; females; by gavage; site: pituitary gland; lesion: chromophobe adenoma + chromophobe carcinoma; dosed 106 weeks; study length 108 weeks
PROPERTY NAME: TD50 (mg/kg/day)
Numbers only, in mg/kg/day.

Challenge: # return recorded TD50 for entry `Cc1ccc(N=C=O)cc1N=C=O`
Response given: 86.9

----------
- System: rodent lifetime carcinogenesis bioassay, tumor incidence TD50
- EXPERIMENT DESCRIPTION: carcinogenic potency in animals, long-term in vivo studies, CPDB compilation (AID 1745844)
- MEASUREMENT CONTEXT: mouse; strain Swiss albino; females; in drinking water; site: lung; lesion: adenoma; dosed 82 weeks; study length 82 weeks
PROPERTY NAME: TD50 (mg/kg/day)
One number for each entry, in mg/kg/day.

Challenge: # return recorded TD50 for entry `CCNN`
Response given: 5.62

----------
- Tested on: rodent lifetime carcinogenesis bioassay, tumor incidence TD50
- EXPERIMENT DESCRIPTION: carcinogenic potency in animals, long-term in vivo studies, CPDB compilation (AID 1745844)
- MEASUREMENT CONTEXT: rat; strain Sprague-Dawley; males; by gavage; site: liver; lesion: hepatocellular adenoma; dosed 167 weeks; study length 167 weeks
PROPERTY NAME: TD50 (mg/kg/day)
Give bare numbers, in mg/kg/day.

Challenge: # return recorded TD50 for entry `CC/C(=C(\c1ccccc1)c1ccc(OCCN(C)C)cc1)c1ccccc1`
Response given: 497

----------
- System: rodent lifetime carcinogenesis bioassay, tumor incidence TD50
- EXPERIMENT DESCRIPTION: carcinogenic potency in animals, long-term in vivo studies, CPDB compilation (AID 1745844)
- MEASUREMENT CONTEXT: rat; strain Fischer 344; males; in drinking water; site: coccyx + humerus + subcutaneous tissue + vertebra; lesion: osteosarcoma; dosed 103 weeks; study length 104 weeks
PROPERTY NAME: TD50 (mg/kg/day)
Answers are plain numbers, in mg/kg/day.

Challenge: # return recorded TD50 for entry `F`
Response given: 82.7

----------
- System: rodent lifetime carcinogenesis bioassay, tumor incidence TD50
- EXPERIMENT DESCRIPTION: carcinogenic potency in animals, long-term in vivo studies, CPDB compilation (AID 1745844)
- MEASUREMENT CONTEXT: rat; strain Fischer 344; females; inhaled; site: liver; lesion: hemangiosarcoma; dosed 103 weeks; study length 104 weeks
PROPERTY NAME: TD50

Challenge: # return recorded TD50 for entry `FC(F)=C(F)F`
Response given: 886 mg/kg/day

----------
- Test system: rodent lifetime carcinogenesis bioassay, tumor incidence TD50
- EXPERIMENT DESCRIPTION: carcinogenic potency in animals, long-term in vivo studies, CPDB compilation (AID 1745844)
- MEASUREMENT CONTEXT: hamster; strain Syrian Golden; females; by gavage; site: forestomach; lesion: benign tumor; dosed 30 weeks; study length 75 weeks
PROPERTY NAME: TD50

Challenge: Under rodent lifetime carcinogenesis bioassay, tumor incidence TD50: report TD50 of `CCN(N=O)C(=O)NCCO` .
Response given: 1.76 mg/kg/day

----------
- Test system: rodent lifetime carcinogenesis bioassay, tumor incidence TD50
- EXPERIMENT DESCRIPTION: carcinogenic potency in animals, long-term in vivo studies, CPDB compilation (AID 1745844)
- MEASUREMENT CONTEXT: mouse; strain Swiss albino; females; in drinking water; site: lung; lesion: adenoma; dosed 93 weeks; study length 93 weeks
PROPERTY NAME: TD50 (mg/kg/day)
Answers are plain numbers, in mg/kg/day.

Challenge: # return recorded TD50 for entry `NNCCc1ccccc1`
Response given: 25.8

----------
- Tested on: rodent lifetime carcinogenesis bioassay, tumor incidence TD50
- EXPERIMENT DESCRIPTION: carcinogenic potency in animals, long-term in vivo studies, CPDB compilation (AID 1745844)
- MEASUREMENT CONTEXT: rat; strain CB; males; i.p.; site: peritoneal cavity; lesion: sarcoma; dosed 26 weeks; study length 100 weeks
PROPERTY NAME: TD50

Challenge: Under rodent lifetime carcinogenesis bioassay, tumor incidence TD50: report TD50 of `CC1=CC(C)(C)N(N=O)c2ccccc21` .
Response given: 3.31 mg/kg/day

----------
- Tested on: rodent lifetime carcinogenesis bioassay, tumor incidence TD50
- EXPERIMENT DESCRIPTION: carcinogenic potency in animals, long-term in vivo studies, CPDB compilation (AID 1745844)
- MEASUREMENT CONTEXT: rat; strain Fischer 344; males; in drinking water; site: nasal cavity; lesion: several types; types named in the paper; dosed 30 weeks; study length 55 weeks
PROPERTY NAME: TD50

Challenge: # return recorded TD50 for entry `CCN=[N+]([O-])CC`
Response given: 0.022 mg/kg/day

----------
- Tested on: rodent lifetime carcinogenesis bioassay, tumor incidence TD50
- EXPERIMENT DESCRIPTION: carcinogenic potency in animals, long-term in vivo studies, CPDB compilation (AID 1745844)
- MEASUREMENT CONTEXT: rat; strain Fischer 344; males; in feed; site: liver; lesion: hepatocellular carcinoma; dosed 103 weeks; study length 103 weeks
PROPERTY NAME: TD50 (mg/kg/day)
Numbers only, in mg/kg/day.

Challenge: # return recorded TD50 for entry `CCCCN(CCCCO)N=O`
Response given: 185

----------
- Test system: rodent lifetime carcinogenesis bioassay, tumor incidence TD50
- EXPERIMENT DESCRIPTION: carcinogenic potency in animals, long-term in vivo studies, CPDB compilation (AID 1745844)
- MEASUREMENT CONTEXT: rat; strain Fischer 344; females; in feed; site: liver; lesion: hepatocellular adenoma; dosed 103 weeks; study length 104 weeks
Active and inactive are the calls of the source. How the calls were made is not given here.
PROPERTY NAME: TD50

Would you please look over these solved cases?
Challenge: Under rodent lifetime carcinogenesis bioassay, tumor incidence TD50: report TD50 of CCCCCCCC/C=C/CCCCCCCC(=O)OCCOCC(OCCO)C1OCC(OCCO)C1OCCO (centres undefined) .
Response given: 15800 mg/kg/day (inactive)

Challenge: Under rodent lifetime carcinogenesis bioassay, tumor incidence TD50: report TD50 of `Nc1c(Br)cc(Br)c2c1C(=O)c1ccccc1C2=O` .
Response given: 53.9 mg/kg/day

Challenge: Under rodent lifetime carcinogenesis bioassay, tumor incidence TD50: report TD50 of `COc1ccccc1[N+](=O)[O-]` .
Response given: 1010 mg/kg/day

// next entry
Challenge: Under rodent lifetime carcinogenesis bioassay, tumor incidence TD50: report TD50 of `Cc1ccc(N=Nc2c(O)ccc3ccccc23)c([N+](=O)[O-])c1` .
Response given: 5240 mg/kg/day

----------
- Test system: rodent lifetime carcinogenesis bioassay, tumor incidence TD50
- EXPERIMENT DESCRIPTION: carcinogenic potency in animals, long-term in vivo studies, CPDB compilation (AID 1745844)
- MEASUREMENT CONTEXT: rat; strain Fischer 344; males; in feed; site: any site (literature study); lesion: several types; types named in the paper; dosed 106 weeks; study length 106 weeks
PROPERTY NAME: TD50 (mg/kg/day)
Give bare numbers, in mg/kg/day.

Challenge: Under rodent lifetime carcinogenesis bioassay, tumor incidence TD50: report TD50 of `Oc1c(Cl)cc(Cl)c(Cl)c1Cc1c(O)c(Cl)cc(Cl)c1Cl` .
Response given: 30.4

----------
- Tested on: rodent lifetime carcinogenesis bioassay, tumor incidence TD50
- EXPERIMENT DESCRIPTION: carcinogenic potency in animals, long-term in vivo studies, CPDB compilation (AID 1745844)
- MEASUREMENT CONTEXT: rat; strain Fischer 344; males; in feed; site: liver; lesion: neoplastic nodule; dosed 110 weeks; study length 133 weeks
PROPERTY NAME: TD50 (mg/kg/day)
Give bare numbers, in mg/kg/day.

Challenge: # return recorded TD50 for entry `CN(C)CCN(Cc1cccs1)c1ccccn1`
Response given: 11.1

----------
- System: rodent lifetime carcinogenesis bioassay, tumor incidence TD50
- EXPERIMENT DESCRIPTION: carcinogenic potency in animals, long-term in vivo studies, CPDB compilation (AID 1745844)
- MEASUREMENT CONTEXT: mouse; strain CTM; females; in feed; site: several sites; sites named in the paper; lesion: carcinoma; dosed 40 weeks; study length 79 weeks
PROPERTY NAME: TD50

Challenge: # return recorded TD50 for entry `O=[N+]([O-])c1ccc(-c2cnc3ccccn23)o1`
Response given: 21.6 mg/kg/day
